Source listed as patent US9469647B2.

- experimental protocol: Bridging study of monophosphate salt and free base in dog (plasma pharmacokinetics)
- Assay type: in vivo
- assay conditions: male, po, 40 mg/kg, dog M-5002, oral gavage
reported property: Cmax (ng/mL)
One number for each entry, in ng/mL.

**Query** Quick check: Cmax of CN1C(=O)c2c(nn(Cc3ccc(-c4cccc(F)n4)cc3)c2Nc2ccccc2)N2C1=N[C@@H]1CCC[C@@H]12 [Free base API (amorphous)] ?
**Result** 1320

###

- experimental protocol: Solubility study of phosphate salt crystals in aqueous media at pH 1.2-6.8
- Format: physicochemical
- assay conditions: 50 mM phosphate buffer, pH 4, aqueous buffer, thermodynamic from solid, pH 4, 50 mM phosphate buffer; read-out: Solubility after 16 hrs
Structures can show the parent of a compound that is named as a salt.
reported property: solubility at 16 hr (µg/mL)
Answers are plain numbers, in µg/mL.

**Query** Quick check: solubility at 16 hr of CN1C(=O)c2c(nn(Cc3ccc(-c4cccc(F)n4)cc3)c2Nc2ccccc2)N2C1=N[C@@H]1CCC[C@@H]12 [Phosphate salt] ?
**Result** 7700

###

- experimental protocol: Single rising dose clinical study (pharmacokinetic profile)
- Assay type: in vivo
- assay conditions: plasma; human; single oral dose 25 mg, aqueous solution; Mean (SD)
Structures can show the parent of a compound that is named as a salt.
reported property: Tmax (min)
One number for each entry, in min.

**Query** Quick check: Tmax of CN1C(=O)c2c(nn(Cc3ccc(-c4cccc(F)n4)cc3)c2Nc2ccccc2)N2C1=N[C@@H]1CCC[C@@H]12 [Phosphate salt] ?
**Result** 30

###

- experimental protocol: Single rising dose clinical study (pharmacokinetic profile)
- Format: in vivo
- assay conditions: plasma; human; single oral dose 150 mg, aqueous solution; Mean (SD)
- Method: In a single rising dose clinical study involving 55 active subjects (15 placebo) with 11 active:3 placebo for each dose level of 10, 25, 75, 150, 300 mg, the mono-phosphate salt crystals of (6aR,9aS)-5,6a,7,8,9,9a-hexahydro-5-methyl-3-(phenylamino)-2-((4-(6-fluoropyridin-2-yl)phenyl)methyl)-cyclopent[4,5]imidazo[1,2-a]pyrazolo[4,3-e]pyrimidin-4(2H)-one is dissolved in water, and this aqueous solution is orally administered. The pharmacokinetic profile is setforth below in Table 7.
Where a name gives a salt, the structure may show the parent alone.
reported property: Tmax (h)
Numbers only, in h.

**Query** Quick check: Tmax of CN1C(=O)c2c(nn(Cc3ccc(-c4cccc(F)n4)cc3)c2Nc2ccccc2)N2C1=N[C@@H]1CCC[C@@H]12 [Phosphate salt] ?
**Result** 1

###

- experimental protocol: Bridging study of monophosphate salt and free base in dog (plasma pharmacokinetics)
- Format: in vivo
- assay conditions: female, po, 40 mg/kg, dog F-5102, oral gavage
reported property: Cmax (µg/mL)
One number for each entry, in µg/mL.

**Query** Quick check: Cmax of CN1C(=O)c2c(nn(Cc3ccc(-c4cccc(F)n4)cc3)c2Nc2ccccc2)N2C1=N[C@@H]1CCC[C@@H]12 [Free base API (amorphous)] ?
**Result** 2

###

- experimental protocol: Bridging study of monophosphate salt and free base in dog (plasma pharmacokinetics)
- Assay type: in vivo
- assay conditions: both sexes, po, 40 mg/kg, Mean, oral capsule
Counter-ions that a name gives are not always drawn.
reported property: AUC (µg·h/mL)
One number for each entry, in µg·h/mL.

**Query** Quick check: AUC of CN1C(=O)c2c(nn(Cc3ccc(-c4cccc(F)n4)cc3)c2Nc2ccccc2)N2C1=N[C@@H]1CCC[C@@H]12 [Phosphate salt] ?
**Result** 18.7
